These entries and their values trace back to patent US8541427B2.

target: CYP2D6 (Homo sapiens (Human)); experiment: CYP Inhibition Assay, CYP2D6; type: in vitro ADME; conditions: human liver microsomes, 30 min pre-incubation with NADPH; read-out: CYP 2D6 IC50 pre
Sequence (P10635 whole entry): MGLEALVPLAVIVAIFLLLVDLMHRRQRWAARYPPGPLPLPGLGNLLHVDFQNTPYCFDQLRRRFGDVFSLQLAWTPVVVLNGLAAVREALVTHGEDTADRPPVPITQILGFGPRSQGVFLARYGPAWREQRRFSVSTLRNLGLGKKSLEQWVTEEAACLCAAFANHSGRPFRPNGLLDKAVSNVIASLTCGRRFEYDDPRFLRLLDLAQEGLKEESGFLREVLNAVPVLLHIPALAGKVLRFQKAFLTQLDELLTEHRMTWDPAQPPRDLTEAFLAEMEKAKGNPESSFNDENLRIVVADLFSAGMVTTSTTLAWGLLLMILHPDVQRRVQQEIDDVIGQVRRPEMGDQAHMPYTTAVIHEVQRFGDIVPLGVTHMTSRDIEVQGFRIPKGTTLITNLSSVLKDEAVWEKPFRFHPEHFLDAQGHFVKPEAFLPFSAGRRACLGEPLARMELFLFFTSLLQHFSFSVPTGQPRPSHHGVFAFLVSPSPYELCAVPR
pIC50: −log10 of the molar value.
measure: pIC50

Guide cases for pIC50, answers given:
- molecule: "CCOc1nc(N2C[C@H]3C(=O)N(C)C(=N)N[C@@]3(c3ccccc3)C2)nc(OC)c1F (racemic) [24 racemic]"
  measurement-target: "CYP2D6 (Homo sapiens (Human))"
  pIC50: "~4.52"
- molecule: "Cc1nc(N2C[C@H]3C(=O)N(C)C(N)=N[C@@]3(c3ccccc3)C2)nc(C2CC2)c1F (racemic) [25 racemic]"
  measurement-target: "CYP2D6 (Homo sapiens (Human))"
  pIC50: "< 4.70"

Field request: pIC50 | item: Cc1nc(N2C[C@H]3C(=O)N(C)C(N)=N[C@@]3(c3ccccc3)C2)nc(C)c1F (racemic) [23 racemic] < 4.52

COc1nc(N2C[C@H]3C(=O)N(C)C(=N)N[C@@]3(c3cc(F)ccc3F)C2)nc(C2CC2)c1Cl , same question. < 4.70

CCc1nc(N2C[C@H]3C(=O)N(C)C(N)=N[C@@]3(c3ccccc3)C2)nc(C)c1F (racemic) [5 racemic] , same question. < 4.52

COc1nc(N2C[C@H]3C(=O)N(C)C(N)=N[C@@]3(c3cc(F)c(F)cc3F)C2)nc(C)c1F , same question. < 4.70

Cc1nc(N2C[C@H]3C(=O)N(C)C(=N)N[C@@]3(c3cccc(C#N)c3)C2)nc(C2CC2)c1F , same question. < 4.70

COc1nc(N2C[C@H]3C(=O)N(C)C(=N)N[C@@]3(c3cc(F)ccc3F)C2)nc(OC)c1F , same question. < 4.52

CCc1nc(N2C[C@H]3C(=O)N(C)C(N)=N[C@@]3(c3ccccc3)C2)nc(C2CC2)c1Cl (racemic) [26 racemic] , same question. < 4.70
